# Test Protocol: log P by HPLC (OECD Guideline 117), method [a] acidic range
# Type: physicochemical
# Condition Notes: HPLC, method [a] acidic range
Labelling field: enter condition met if recorded logP[a] is less than 4. Enter condition not met if it equals or exceeds that cut-off.

| Compound | Cat |
| --- | --- |
| Cc1cc(F)c(-n2nc(-c3ccccc3)oc2=O)cc1SCC(F)(F)F | condition not met |
| Cc1ccc(-n2nc(OC(C)C)n(C3CC3)c2=O)cc1SCC(F)(F)F | condition not met |
| C=CCn1c([S+]([O-])C(C)C)nn(-c2cc([S+]([O-])CC(F)(F)F)c(C)cc2F)c1=O (centres unmarked) | condition met |

stdin: Lab log: compare recorded logP[a] with 4; is it strictly lower for Cc1cc(F)c(-n2nc(CC(C)C)n(C3CC3)c2=O)cc1[S+]([O-])CC(F)(F)F (racemic) ?
stdout: condition met

stdin: Could you please tell me whether logP[a] recorded for "CC=Cc1nn(-c2cc(SCC(F)(F)F)c(C)cc2F)c(=O)n1C1CC1" is less than 4?
stdout: condition met

stdin: Lab note: confirm whether the reported logP[a] for this compound is below 4, equality not counting. compound: COc1nn(-c2ccc(C(F)(F)F)c([S+]([O-])CC(F)(F)F)c2)c(=O)n1C1CC1 (centres unmarked)
stdout: condition met

====

# Test Protocol: log P by HPLC (OECD Guideline 117), method [b] neutral range
# Type: physicochemical
# Condition Notes: HPLC, method [b] neutral range
Quick list: logP[b] per entry.
# answer = number (no unit)

Before answering, review these 6 worked examples.
| Compound | logP[b] |
| --- | --- |
| Cc1cc(F)c(-n2nc([S+]([O-])CC3CC3)n(C)c2=O)cc1SCC(F)(F)F (centres unmarked) | 2.85 |
| C=CCn1c(OC)nn(-c2ccc(C)c(SCC(F)(F)F)c2)c1=O | 3.81 |
| CCC[S+]([O-])c1nn(-c2cc(SCC(F)(F)F)c(C)cc2F)c(=O)n1C1CC1 (centres unmarked) | 2.98 |
| Cc1cc(F)c(-n2nc(SCC(F)F)n(C3CC3)c2=O)cc1[S+]([O-])CC(F)(F)F (centres unmarked) | 2.69 |
| CCc1nn(-c2cc(SCC(F)(F)F)c(C)cc2F)c(=O)o1 | 3.46 |
| Cc1cc(F)c(-n2nc(Cl)n(C)c2=O)cc1SCC(F)(F)F | 3.04 |

stdin: # return recorded logP[b] for input COc1nn(-c2cc([S+]([O-])CC(F)(F)F)c(C)cc2C)c(=O)n1C1CC1 (centres unmarked)
stdout: 2.17

stdin: Quickly give me recorded logP[b] for O=c1n(-c2cc([S+]([O-])CC(F)(F)F)c(Br)cc2F)nc(OCC(F)(F)F)n1C1CC1 (racemic)
stdout: 3.26

stdin: Specify logP[b] for COc1nn(-c2cc([S+]([O-])CC(F)(F)F)c(Cl)cc2Cl)c(=O)n1C (centres unmarked) and stop.
stdout: 2.24

stdin: Consider the compound "Cc1cc(F)c(-n2nc(-c3ccccc3)oc2=O)cc1SCC(F)(F)F" . State its measured logP[b].
stdout: 4.29

stdin: Output measured logP[b] for this item: "C=CCn1c(SC)nn(-c2cc(SCC(F)(F)F)c(C)cc2F)c1=O"
stdout: 3.58

stdin: For the compound Cc1cc(F)c(-n2nc(N(C)C)n(N)c2=O)cc1[S+]([O-])CC(F)(F)F (centres unmarked) , give its measured logP[b] value.
stdout: 1.60

stdin: Query logP[b] for "Cc1cc(F)c(-n2nc(OCC3CC3)n(C3CC3)c2=O)cc1SCC(F)(F)F"
stdout: 3.90

stdin: Identify the reported logP[b] for the following entry. "CC=Cc1nn(-c2cc(SCC(F)(F)F)c(C)cc2F)c(=S)n1C1CC1"
stdout: 3.94

stdin: Assign logP[b] to the following record: CCn1c(SC)nn(-c2cc([S+]([O-])CC(F)(F)F)c(C)cc2F)c1=O (centres unmarked)
stdout: 2.33

stdin: Find the measured logP[b] of Cc1cc(F)c(-n2nc(OC(C)(C)C)n(C)c2=O)cc1[S+]([O-])CC(F)(F)F (centres unmarked) and report it.
stdout: 2.76

stdin: Specify reported logP[b] for the compound shown: "Cc1cc(F)c(-n2ncn(N)c2=O)cc1SCC(F)(F)F"
stdout: 2.01
